Assay: gradient 5% acetonitrile 3 min, to 50% in 2 min, to 85% in 15 min, held 3 min, 100 µL/min
Details: column: Zorbax Extend-C18 2.1 x 50 mm; eluents: water / acetonitrile, 0.1% formic acid
Grouping key: RP-LC retention time. Bins: bin 0 = under 700 s, bin 1 = from 700 s up to 900 s, bin 2 = 900 s and over

Inquiry: Form field 'band' for COc1ccc2c(C)c(CCC(=O)N3CCC(C(N)=O)CC3)c(=O)oc2c1C
Reply text: bin 0

Inquiry: Which bin should I file COc1ccc(C(=O)N2CCc3ccc(C(=O)NCc4ccco4)cc32)cc1 under?
Reply text: bin 1

Inquiry: Quick check: band for CC1CCN(C(=O)c2nc(CCS(=O)(=O)c3ccc(Cl)cc3)no2)CC1
Reply text: bin 2

---

Experiment: gradient 5% acetonitrile 3 min, to 50% in 2 min, to 85% in 15 min, held 3 min, 100 µL/min
Settings: column: Zorbax Extend-C18 2.1 x 50 mm; eluents: water / acetonitrile, 0.1% formic acid
Catalogue of RP-LC retention time values
Reply with just the number (in s).

Would you please look over these solved cases?
COMPOUND	UNIT ABBREVIATION	RESULT NUMBER
COc1ccc(NC(=O)C(C)C2CCN(C(=O)Nc3ccccc3)CC2)cc1Cl (centres undefined)	s	850
COc1cccc(CNC(=O)NC2CCN(c3cc(C)cc(C)c3)C2=O)c1 (centres undefined)	s	840
Cc1ccn2cc(-c3ccc(NC(=O)c4ccc(Br)o4)cc3)nc2n1	s	647
COCC(=O)N1CCc2c(c(-c3nnc(-c4ccccc4Cl)o3)nn2C)C1	s	689

GET /value?item= CCC(C)C(NC(=O)Cc1ccc(Cl)cc1)C(=O)Nc1nc2ccccc2[nH]1 (centres undefined) &field=RP-LC retention time returns 785

Record CCN1CCN(CCNC(=O)c2cc3n(n2)CCCN(Cc2cccc(C)c2)C3=O)CC1 . Reported RP-LC retention time: 602

---

Assay: gradient 5% acetonitrile 3 min, to 50% in 2 min, to 85% in 15 min, held 3 min, 100 µL/min
Settings: column: Zorbax Extend-C18 2.1 x 50 mm; eluents: water / acetonitrile, 0.1% formic acid
Exam item: assign 1 to entries whose RP-LC retention time is below 800 s and -1 to entries at or above 800 s. Note that a value of exactly 800 s receives -1.

Record excerpt, results attached:
COMPOUND	ASSIGNED CATEGORY
Cc1cccn2cc(-c3ccc(NS(=O)(=O)c4ccc(Cl)cc4)cc3)nc12	1
CCN1CCn2c(nc3cc(C(=O)NCc4ccc5c(c4)OCO5)ccc32)C1=O	1
O=C(C1=CN(c2ccc(F)cc2)c2cc(Cl)ccc2S1(=O)=O)N1CCCC1	-1
O=C(Nc1ncc(Cc2ccc(F)cc2)s1)c1ccc([N+](=O)[O-])cc1	-1

Inquiry: Hello, is RP-LC retention time of the following compound strictly smaller than 800 s? Cc1ccc(N2CC(c3noc(COc4cccc(C)c4)n3)CC2=O)cc1 (stereo not given)
Reply text: -1

Inquiry: Quick check: does CCN(CC)C(=O)Nc1ccc(C)c(Cl)c1 have RP-LC retention time under 800 s?
Reply text: -1

Inquiry: Does CCCNC(=O)CN1CCN(Cc2ccc(F)cc2)C1=O have RP-LC retention time strictly under 800 s?
Reply text: 1

Inquiry: Answer whether the compound Cc1c(C(=O)O)nnn1-c1ccc2c(c1)OCCO2 has RP-LC retention time strictly less than 800 s
Reply text: 1

Inquiry: Lab note: confirm whether the reported RP-LC retention time for this compound is below 800 s, equality not counting. compound: O=c1c2cnc3nc(-c4ccccc4Cl)nn3c2ccn1-c1ncn[nH]1
Reply text: 1

---

Experiment: gradient 5% acetonitrile 3 min, to 50% in 2 min, to 85% in 15 min, held 3 min, 100 µL/min
Conditions: column: Zorbax Extend-C18 2.1 x 50 mm; eluents: water / acetonitrile, 0.1% formic acid
ASSAY ENDPOINT: RP-LC retention time (s)
Express it in s; write the number only.

// below: answered compounds
COMPOUND	RP-LC retention time, s
CCNC(=O)c1n[nH]c2c1CN(C(=O)c1ccc(OC(F)(F)F)cc1)CC2	728
CCOC1CCN(C(=O)NC2CCCCC2)CC1	740
Cc1ncc2c(n1)CCN(C(=O)c1ccc(Br)cc1)C2	675
CCOc1cc(=O)n2c(c1C(=O)Nc1ccc(C(=O)OC)cc1)CCCC2	707
O=C(NC1CCCCC1)C1c2ccccc2C(=O)N1Cc1ccc2c(c1)OCO2 (stereo unspecified)	860
Cc1ccc(C(=O)CC2(O)C(=O)Nc3ccccc32)cc1C (stereo unspecified)	751
CCn1c(=O)c(N2CCC(C(=O)NCCCN3CCCC3=O)CC2)nc2ccccc21	643
CCN1C(=O)c2cccnc2Sc2cc(CNC(=O)c3ccco3)ccc21	701
CC(C)CC(=O)Nc1nc(-c2ccc3c(c2)NC(=O)CO3)cs1	787
Cc1ccc(-c2nc(N3CC(C)CC(C)C3)c3ccccc3n2)cc1 (stereo unspecified)	932

According to the records, this compound COc1ccccc1Oc1ccc(S(=O)(=O)N2CCCC2)cc1 displays RP-LC retention time of 914

Sample CC(C)NCc1ccc(-c2ccc(F)cc2)o1 ; RP-LC retention time observed: 647

Noted for Cc1ccc2c(c1)OCC(=O)N2CC(=O)NC1CC1 : its RP-LC retention time reads 701

Lab note: Cc1cc(N2CCCC2)n2nc(CN(C)Cc3ccccc3)nc2n1 gave RP-LC retention time of 593

---

Test: gradient 5% acetonitrile 3 min, to 50% in 2 min, to 85% in 15 min, held 3 min, 100 µL/min
Conditions: column: Zorbax Extend-C18 2.1 x 50 mm; eluents: water / acetonitrile, 0.1% formic acid
Measured RP-LC retention time, listed per entry for reference.
Respond with the bare value in s.

MOLECULE	UNIT ABBREVIATION	RESULT NUMBER
Cc1ccc(CNC(=O)C2Cn3cccc3C(=O)N2C)o1 (stereo not given)	s	663
O=C(Cc1cc(-c2ccc(F)cc2)on1)NCCc1c[nH]c2ccccc12	s	824
CNC(=O)c1cc2cc(Br)ccc2[nH]1	s	771
Cc1cc(Cl)ccc1-n1ncc2c(N3CCN(C)CC3)ncnc21	s	633

Value of measured RP-LC retention time for the entry O=c1n(CCc2ccccc2)nc2ccc(S(=O)(=O)N3CCCC3)cn12 : 868

Per the records, this molecule ( Cc1nnc(-c2ccc3ccn(CC(=O)NCCc4ccc(Cl)cc4)c3c2)o1 ) has RP-LC retention time equal to 824

The measured RP-LC retention time associated with CCCn1c(=O)c2sc(N3CCCC3)nc2n(CC(=O)Nc2cc(F)cc(F)c2)c1=O reads 902

Quick note, RP-LC retention time for CS(=O)(=O)N1CCCC(C(=O)NCCC2=CCCCC2)CCNC(=O)CC1 (stereo not given) landed at 690

Entry COc1ccc(CC(=O)N2CCC3(CC2)NC(=O)c2ccc(F)cc2N3C)cc1 ; RP-LC retention time = 759

The reported RP-LC retention time of the molecule CCN(CC)CCOc1ccc(C(=C(Cl)c2ccccc2)c2ccccc2)cc1 was 1010

Looking up O=C(NCc1ccccc1Cl)C1CCN(C(=O)c2sccc2-n2cccc2)CC1 , I found its RP-LC retention time recorded as 863

The molecule listed as Cc1cc(N2CCCC2)nc(N2CCN(C(=O)C3CCCCC3)CC2)n1 shows RP-LC retention time equal to 693

Sure, the documented RP-LC retention time for COc1cccc(-c2nnc(Cc3nc(-c4ccc(SC)cc4)no3)o2)c1 is 1050

For reference, reported RP-LC retention time for COCCc1nnc(NC(=O)COc2ccc(Cl)cc2)o1 stands at 655

The reported value for Cc1nnc2ccc(-c3noc(-c4ccc5c(c4)OCO5)n3)cn12 in terms of RP-LC retention time is 871

In plain terms, O=C(CCCn1c(=O)c2cccn2c2ccc(F)cc21)N1CCCCCC1 has a documented RP-LC retention time of 934

CCOc1ccccc1C(=O)Nc1ccc2c(c1)Sc1ncccc1C(=O)N2CC yielded RP-LC retention time of 822

RP-LC retention time measured on O=C1Nc2ccccc2C(=O)N2CCCC12 (stereo not given) = 590

So, CCn1cc(C(=O)Nc2ccccc2)c2cccnc21 ? Its RP-LC retention time was 798

---

Catalogue of RP-LC retention time readings, one per entry.
Test: gradient 5% acetonitrile 3 min, to 50% in 2 min, to 85% in 15 min, held 3 min, 100 µL/min
Conditions: column: Zorbax Extend-C18 2.1 x 50 mm; eluents: water / acetonitrile, 0.1% formic acid
I only need the number, in s, no unit after it.

COMPOUND	ASSAY ENDPOINT	UNIT ABBREVIATION	RESULT NUMBER
CC(C)(N)c1ncc(-c2ccc(OC(F)(F)F)cc2)[nH]1	RP-LC retention time	s	693
COc1cccc(C2Cn3nnc(-c4nc(-c5ccc(OC(C)C)cc5)no4)c3CO2)c1 (centres undefined)	RP-LC retention time	s	1250
CCOc1cccc(-c2noc(CN3C(=O)COc4ccccc43)n2)c1	RP-LC retention time	s	1050

Lookup result for O=C(NCc1ccc(F)cc1Cl)C1=C2CCCN2c2ccc(F)cc2S1(=O)=O ; measured RP-LC retention time: 933

# RP-LC retention time of Cc1ccc(CNC(=O)C2(C)CCCN(C(=O)Nc3cc(Cl)ccc3C)C2)cc1 (centres undefined) = 1080

Sample O=C(c1cccc(OC(F)(F)F)c1)N1CCN(c2cc(-c3cccs3)[nH]n2)CC1 ; RP-LC retention time observed: 828

Record COc1ccc(-c2nsc(SCC(=O)N3CCCc4ccccc43)n2)cc1 . Reported RP-LC retention time: 1110

Form: compound = O=C1COc2cc(S(=O)(=O)N3CCC(C(=O)N4CCOCC4)CC3)c(Cl)cc2N1 ; RP-LC retention time = 659

Measured RP-LC retention time, O=C(CNC(=O)c1ccc(=O)[nH]c1)NCc1ccc(OCc2ccccc2)cc1 : 661

FYI, the data here is from the METLIN SMRT retention time set (Domingo-Almenara et al. 2019).
